Target: ERα (Homo sapiens, UniProt P03372)
Sequence (P03372 whole entry): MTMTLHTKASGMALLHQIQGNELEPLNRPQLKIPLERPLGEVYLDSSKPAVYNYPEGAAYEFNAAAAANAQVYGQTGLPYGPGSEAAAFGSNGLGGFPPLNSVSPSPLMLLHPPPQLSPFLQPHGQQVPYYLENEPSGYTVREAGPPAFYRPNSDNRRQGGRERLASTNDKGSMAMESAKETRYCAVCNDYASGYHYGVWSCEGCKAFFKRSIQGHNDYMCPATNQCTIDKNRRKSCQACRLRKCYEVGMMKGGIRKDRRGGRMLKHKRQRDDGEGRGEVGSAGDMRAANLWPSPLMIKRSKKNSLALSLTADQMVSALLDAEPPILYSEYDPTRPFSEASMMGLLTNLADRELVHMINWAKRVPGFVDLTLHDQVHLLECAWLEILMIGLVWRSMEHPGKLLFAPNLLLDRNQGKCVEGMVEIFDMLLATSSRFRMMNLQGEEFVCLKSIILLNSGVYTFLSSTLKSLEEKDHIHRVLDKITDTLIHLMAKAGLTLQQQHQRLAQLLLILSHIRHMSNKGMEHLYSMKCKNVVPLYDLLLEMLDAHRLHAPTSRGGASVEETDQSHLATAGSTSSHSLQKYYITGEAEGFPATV
Test: In-Cell Western immunoassay, ERα levels in MCF-7 cells
Assay type: cell-based
Conditions: MCF7, read-out: % efficacy [1 μM], downregulation of ERα compared to fulvestrant (100%), MCF-7, 1 μM
Give measured Emax at 1 µM for each item. Keep answers brief.
// units = %; emit number, no label

State its Emax at 1 µM for this compound: CCC(=C(c1ccc(O)cc1)c1ccc(/C=C/C(=O)NCCCCCNC(=O)CCc2nc3cc(O)ccc3[nH]2)cc1)c1ccccc1 (mixture of isomers)
8

State its Emax at 1 µM for this compound: CCC(=C(c1ccc(O)cc1)c1ccc(/C=C/C(=O)NCCCNC(=O)c2ccc(N3CCN(C(=O)CCCn4c(=S)[nH]c5ccccc5c4=O)CC3)cc2)cc1)c1ccccc1 (mixture of isomers)
94.5

State its Emax at 1 µM for this compound: CCC(=C(c1ccc(O)cc1)c1ccc(/C=C/C(=O)NCCNC(=O)CCc2nc3cc(O)ccc3[nH]2)cc1)c1ccccc1 (mixture of isomers)
1

State its Emax at 1 µM for this compound: CCC(=C(c1ccc(O)cc1)c1ccc(/C=C/C(=O)NCCCNC(=O)CCCn2c(=S)[nH]c3ccccc3c2=O)cc1)c1ccccc1 (mixture of isomers)
60

State its Emax at 1 µM for this compound: CCC(=C(c1ccc(O)cc1)c1ccc(/C=C/C(=O)NCCCNC(=O)c2ccc(N3CCN(C(=O)CCCCCCCn4c(=S)[nH]c5ccccc5c4=O)CC3)cc2)cc1)c1ccccc1 (mixture of isomers)
64
